meta.source: PubChem BioAssay (NCI)

Entries and their growth
Tested on: EKVX NSCLC
Experiment: NCI-60 one-dose screen, 48 h (100 = growth as untreated, 0 = no growth, -100 = all killed)
Conditions: 10 µM unless noted
Experimental: Growth inhibition of the EKVX human Non-Small Cell Lung tumor cell line is measured as a screen for anti-cancer activity. Cells are grown in 96 well plates and exposed to the test compound for 48 hours. Compounds are tested at a single concentration, which is 10^-5 M for most compounds. The reported endpoint is percent growth (GI% or GIPRCNT), where numbers from 0 - 100% represent growth inhibition, and numbers from -100% - 0 represent cell death. […]
This is part of a sample that, as a whole, favours compounds with a hit. Of some 83,000 tested, about 20% had one in any assay.

compound	growth / %
Cc1ccc(-n2cc(/C=C/C(=O)c3ccc(O)cc3)c(-c3ccc(S(C)(=O)=O)cc3)n2)cc1	91.4
CCC(CC)N1C(=O)/C(=c2\sc3n(c2=O)NC2C(N=3)N(CC)C(=O)N2CC)c2ccccc21 (centres undefined)	59.6
COC[C@]12CCC(C)(C)C[C@H]1C1=CC[C@@H]3[C@@]4(C)CCCNC(C)(C)[C@@H]4CC[C@@]3(C)[C@]1(C)CC2	-83.4
Cc1cc(C)c2sc(=O)n(Cc3nnc(SCCC(=O)O)o3)c2n1	102
NC(=O)c1cccc(C#CCNC[C@H]2C[C@@H](n3ccc4c(Cl)ncnc43)[C@H](O)[C@@H]2O)c1	106
N#Cc1cccc(CN2CCc3ncn(Cc4ccc(Cl)cc4)c(=O)c3C2)c1	23.7
Cc1cc(-c2ccc(Cl)cc2)n(Cc2nnc(SCC(=O)Nc3ccc(S(N)(=O)=O)cc3)n2-c2ccc([N+](=O)[O-])cc2)n1	75.1
COc1ccc2[nH]cc(-c3csc4nc(-c5ccccc5)cn34)c2c1	35.8
Nc1ccccc1NC(=O)c1ccc(NC(=O)C/C=C/c2cccnc2)cc1	61.3

* * *

System: HCT-116 colon
Test: NCI-60 one-dose screen, 48 h
Conditions: 10 µM unless noted
The panel holds about 83,000 compounds, 20% with a hit somewhere; the sample as a whole holds those more often. Activity calls are given as the source filed them. The calls were made as follows: active = growth percent below 10; inactive = the rest.
Outcomes: YES (active), NO (inactive)

molecule	class name
CCCC(=O)NC(c1cccnc1)c1cc(C(C)(C)C)c2cccnc2c1O (stereo not drawn)	NO
COc1cc(-c2nc(SC(C)C)n(C(C)C)c(=O)c2C#N)ccc1OCc1ccccc1	NO
Nc1cc(-c2c[nH]c3ccc(Br)cc23)nc2cc(-c3c[nH]c4ccc(Br)cc34)nn12	YES
C[C@H](CCC(=O)NCc1ccc(C(=O)Nc2ccccc2N)cc1)[C@H]1CC[C@H]2[C@@H]3[C@@H](O)C[C@@H]4C[C@H](O)CC[C@]4(C)[C@H]3CC[C@]12C	NO
O=C(Nc1ccc2c(ccn2Cc2ccccn2)c1)c1ccnnc1	NO
COc1cc2oc(-c3cccc(NC(=O)c4cc(N)ccc4Cl)c3)cc(=O)c2c(OC)c1OC	NO
NC(=O)c1cccc(C#CCNC[C@H]2C[C@@H](n3ccc4c(Cl)ncnc43)[C@H](O)[C@@H]2O)c1	NO
O=C(c1ccc(Cl)cc1)C1[C@H](c2ccc(Cl)cc2)[C@@H](c2ccccc2)NC12C(=O)Nc1ccccc12 (stereo partly drawn)	NO

* * *

Tested on: UACC-62 melanoma
Assay: NCI-60 one-dose screen, 48 h (100 = growth as untreated, 0 = no growth, -100 = all killed)
Conditions: 10 µM unless noted
The panel holds about 83,000 compounds, 20% with a hit somewhere; the sample as a whole holds those more often.
metric: growth (%)

molecule smiles	reported measurement
Nc1nc(Nc2ccccc2SSc2ccccc2Nc2nc(N)nc(-c3ccccc3)n2)nc(-c2ccccc2)n1	76.3
CCCCCc1ccc(S(=O)(=O)Nc2cc(-c3csc(NC(=O)CN4CCN(CCO)CC4)n3)ccc2OC)cc1	-32.9
CCCCCc1ccc(S(=O)(=O)Nc2cc(-c3csc(NC(=O)CN4CCN(C)CC4)n3)ccc2N2CCN(C)CC2)cc1	-78.4
CS(=O)(=O)Nc1cc(-c2ccc3ncc(C#N)c(N[C@H](CO)c4ccccc4)c3c2)cnc1Cl	13.7

* * *

System: SNB-75 CNS
Test: NCI-60 one-dose screen, 48 h
Conditions: 10 µM unless noted
About 83,000 compounds went through this panel and 20% of them were active in at least one assay; those are over-represented in the sample as a whole. Activity calls are given as the source filed them. The calls were made as follows: active = growth percent below 10; inactive = the rest.
Outcomes: t (active), f (inactive)

compound	class name
COC(=O)C(Cc1ccccc1)Nc1nc(NC(Cc2ccccc2)C(=O)OC)nc(N2CCOCC2)n1 (stereo not given)	f
O=S(=O)(NCCNc1nccc(-n2cnc3ccccc32)n1)c1ccc(Br)cc1	f
NS(=O)(=O)c1ccc(-n2cc(CN3CCNCC3)nn2)cc1	f
Cc1ccc(-c2cc3nc(C(Cl)Cl)nc(C)n3n2)cc1	f
C#CC(=O)N(c1ccc(OC)cc1OC)C(C(=O)NCC(=O)OCC)c1cccs1 (stereo not given)	t
NC(N)=Nc1ccc(Oc2ccc(Nc3ccc(Cl)c(C(F)(F)F)c3)cc2)cc1	f
COc1ccc(C(=O)CSc2nc3c(c(Nc4ccc(S(N)(=O)=O)cc4)n2)CCCC3)cc1	f
C[C@@H]1C[C@H]2C(=O)O[C@@H](C)C(NC(=O)[C@H](Cc3cc(F)cc(F)c3)NC(=O)Nc3ccc(C4CC4)cc3F)C(=O)N3CCC[C@H]3C(=O)N3CCCC[C@H]3C(=O)N[C@@H](CO)C(=O)N2C1 (stereo not given in full)	f
CN1c2ccccc2Sc2cc(C=C(C#N)C#N)ccc21	f
COc1ccc(-c2cc(-c3ccc(Cl)cc3)c(C#N)c(=O)n2Cc2ccc(C(=O)O)cc2)cc1	t
CCN(CC)c1ccc(NC2=C(Cl)C(=O)c3nc(C)ccc3C2=O)cc1	f
O=C(CSc1nc2ccccc2c(=O)n1-c1ccccc1)Nc1cccc(C(=O)/C=C/c2ccccc2)c1	f
N#Cc1ccccc1Cn1c2nc(=N)c3ccccc3c-2nc2ccccc21	f
COc1ccccc1-n1cc(C#N)c(N)c1C(=O)c1ccc(Cl)cc1	f
COc1ccc(-c2nc3cc(Cl)c(Cl)cc3n2CC(=O)N=Nc2c(O)[nH]c3ccc(OC)cc23)cc1	f
O=C(NNc1nc2cc(F)cc(F)c2n2cccc12)c1cnccn1	f
COc1ccc2c(c1)Oc1nc(N)c(C#N)c(N)c1C2Sc1ccc(C)cc1 (stereo not given)	f
Oc1ccc(CSc2nnc(-c3ccc(Cl)cc3)n2-c2ccccc2)c2cccnc12	f
CCCCCCCn1cc2c(NCCc3ccccc3)ncnc2n1	f
O=C(Cn1cc(-c2ccccc2)nn1)Nc1nc(-c2ccc(Cl)cc2)cs1	f

* * *

Test system: MOLT-4 leukemia
Assay: NCI-60 one-dose screen, 48 h
Settings: 10 µM unless noted
This is part of a sample that, as a whole, favours compounds with a hit. Of some 83,000 tested, about 20% had one in any assay. Calls of active or inactive are those of the source. How the source made its calls: active means growth percent below 10; inactive means the rest.
Outcomes: 1 = active, -1 = inactive

compound	class name
Nc1ncc(-c2ccc(NS(=O)(=O)c3ccc(Cl)c(Cl)c3)cc2)[nH]1	-1
NS(=O)(=O)c1ccc(Nc2nc(Nc3ccccc3)nc3nnc(SCC(=O)NC4CCCCC4)n23)cc1	-1
O=S(=O)(NCCCNc1nccc(-c2[nH]c(-c3ccccc3)nc2-c2ccc(Cl)c(O)c2)n1)c1cccc(F)c1	-1
O=C(Nc1ccc(N=Cc2c(O)[nH]c3ccccc23)cc1)Nc1nccs1	-1
CCCCCc1ccc(S(=O)(=O)Nc2cccc(-c3csc(NC(=O)CNCCN(C)C)n3)c2)cc1	-1
COc1cc(-c2nn(C(C)(C)C)cc2-c2ccnc(NCCCNS(=O)(=O)c3cccc(F)c3)n2)ccc1Cl	-1
Nc1cc(-c2c[nH]c3ccc(Br)cc23)nc2cc(-c3c[nH]c4ccc(Br)cc34)nn12	1
CCO/C=N/C1=C(C#N)C(c2ccc(Cl)cc2)c2sc3c(C)cccc3c2O1 (centres undefined)	-1
Clc1cccc(/C=N/Nc2nc(N/N=C/c3cccc(Cl)c3Cl)nc(N3CCCCC3)n2)c1Cl	-1

* * *

System: UO-31 renal
Experiment: NCI-60 one-dose screen, 48 h (100 = growth as untreated, 0 = no growth, -100 = all killed)
Conditions: 10 µM unless noted
About 83,000 compounds went through this panel and 20% of them were active in at least one assay; those are over-represented in the sample as a whole.
metric: growth (%)

molecule	metric	reported measurement
COc1ccc(-n2c(SCc3n[nH]c(=S)o3)nc3ccc(Cl)cc3c2=O)cc1	growth	93.7
COc1ccccc1NCc1cccn1Cc1ccc(F)cc1	growth	75.6
O=C1CC(=O)N2CSCN(C(c3ccccc3)c3nc4ncncc4[nH]3)C2=N1 (stereo not given)	growth	79.6
COc1ccc(S(=O)(=O)NCCCNc2nccc(-c3[nH]c(-c4ccccc4)nc3-c3ccc(Cl)c(O)c3)n2)cc1	growth	116
Cc1ccc(C2=Nn3c(nnc3-c3ccccc3)SC2)cc1	growth	43.1

* * *

Test system: SN12C renal
Test: NCI-60 one-dose screen, 48 h (100 = growth as untreated, 0 = no growth, -100 = all killed)
Settings: 10 µM unless noted
Protocol: Growth inhibition of the SN12C human tumor cell line is measured as a screen for anti-cancer activity. Cells are grown in 96 well plates and exposed to the test compound for 48 hours. Compounds are tested at a single concentration, which is 10^-5 M for most compounds. The reported endpoint is percent growth (GI% or GIPRCNT), where numbers from 0 - 100% represent growth inhibition, and numbers from -100% - 0 represent cell death. For example, a value of 40 represents 60% growth inhibition. […]
Compounds without any hit were thinned out: in the full panel of roughly 83,000, 20% have a hit. The source made the active and inactive calls. Rule for the calls: active = growth percent below 10; inactive = the rest.
metric: growth

molecule	reported measurement
CC1(COc2ccc3ncc(C#Cc4cncc(C(=O)Nc5cccc(C(F)(F)F)c5)c4)n3n2)COC1	61.9% (inactive)
c1n[nH]cc1-c1nc2ccc3[nH]ncc3c2c2c1CCCC2	15.1% (inactive)
Nc1ncc(-c2ccc(NS(=O)(=O)c3ccc(Cl)c(Cl)c3)cc2)[nH]1	90.9% (inactive)
CN(C)CCCOc1ccc2c(c1)CN(C(=O)c1cc(C(=O)N3Cc4cccc(F)c4C3)ccc1O)C2	99.4% (inactive)
CC(=O)Nc1cccc(Nc2nc(N[C@@H](C)c3ccccc3)c3ccccc3n2)c1	33.4% (inactive)
O=C(O)c1cn(C2CC2)c2cc(N3CCN(C(=O)CN4C(=O)CSC4=O)CC3)c(F)cc2c1=O	91.7% (inactive)
Cc1c(Cl)cccc1S(=O)(=O)Nc1ccc2c(c1)C(=O)N(C1CCC(=O)NC1=O)C2=O (centres undefined)	89.4% (inactive)
COc1ccc(S(=O)(=O)NCCCNc2nccc(-c3cn(C(C)(C)C)nc3-c3ccc(Cl)c(OC)c3)n2)cc1	57.1% (inactive)
COc1cc(OC)cc(C(=O)Nc2sc3c(c2C(N)=O)CCC(=O)C3)c1	50.9% (inactive)
Cc1cc(C)c(N2C(=O)CC(Nc3ccc(Cl)cc3Cl)C2=O)c(C)c1 (centres undefined)	98.2% (inactive)
O=C(/C=C/c1ccc(F)cc1)c1ccc(O)cc1	91.9% (inactive)
CCCCNNC(=O)c1ccc(-c2cccc(F)c2F)cc1	56.3% (inactive)
CCn1c(SCC(=O)Nc2cccc(C(=O)/C=C/c3ccc(Br)cc3)c2)nc2ccccc2c1=O	92.7% (inactive)
CCOP(=O)(OCC)OC[C@]12CCC(C)(C)C=C1[C@H]1CC[C@@H]3[C@@]4(C)CC[C@H](OP(=O)(OCC)OCC)C(C)(C)[C@@H]4CC[C@@]3(C)[C@]1(C)CC2	-70.6% (active)
O=C(CSc1nc2ccccc2c(=O)n1-c1ccccc1)Nc1ccc(-c2nc3ccc([N+](=O)[O-])cc3[nH]2)cc1	72.4% (inactive)
Cc1noc(C)c1CSc1nc2ccccc2n1-c1ccccc1	81.4% (inactive)
Nc1ccccc1NC(=O)c1ccc(NC(=O)C/C=C/c2cccnc2)cn1	25.2% (inactive)
ClC(Cl)c1nc(-c2ccco2)n2nc(-c3ccccc3)cc2n1	66.5% (inactive)
Cn1cc(-c2nnc(N)nc2-c2c[nH]c3ccc(F)cc23)c2cc(F)ccc21	81.3% (inactive)
